Documented Enzyme Activity Endpoint Assay (purified): scIgG across a set of proteins
Target desc: pooled human IgG (human IgG1,2,3 and 4)

1) PRT-319 (protein) MTITSVWTKGVTPPTPEDFRENNEDVLHAPYVANQGWYDITKTFDGKDNLLCGAATAGNMLHWWFDQNKEEIERYLKKHPEKQKIIFNNQELFDVKAAIDTKDSQTNSKLFDYFRDKAFPNLSARQLGVMPDLVLDMFINGYYLNLGKTQSTDVNRPYQDKDKRGGIFDAVFTRGDQTTLLTARHDLKNKGLNEISDLIKQELTEGKALALSHTYANVRINHVINLWGADFDAEGNLIAIYVTDSDANASIGMKKYFVGRNANGKVAISAKKIEGDNIGAQVLGLFTLSLGQDIWQKLS :: 0 ng/µL

## Input // Enzyme Activity Endpoint Assay (purified): scIgG lookup, key: PRT-473 (protein) MVTSVWTKGVTPPTDFRKIVDGNIAYYHAPYKAGQGWYDITKTFNGKDDLLCGAATAGNMLHWWFDQNKEQIENYLKKHPEKQKINFNGEQMFDVKEAIDTKDSQLDSKLFEYFKEKAFPYLSTKHLGVFPDHVIDMFINGYRLSLTNHGPTPVKRGSKDPRGGIFDAVFTRGDQSKLLTNRHDFKEKTLKEISDLIKQELTEGKALGISHTYANVRINHVINLWGADFDAEGNLEAIYVTDSDSNASIGMKKYFVGVNSNGKVAISAKEIEEDNIGAQVLGLFTLSTGQDIWNQTNLEHHHHHH
## Output 0 ng/µL

Reference source: patent US20250027068
